The reported numbers originate from patent US20160083391A1.

tested on: PDE1; experiment: In vitro HTRF PDE1 inhibition assay; assay type: biochemical; details: HTRF cGMP assay, 100 nM cyclic GMP, PDE (1A3, 1B or 1C) with calmodulin, 45 minutes at 37° C.; isoform of the tabulated values not stated
Items are presented alongside their recorded IC50.

Query: What value of IC50 has been recorded for this entry: CC1Cn2c(nc3c(cnn3C(C)C)c2=O)CN1Cc1ccc(F)cc1 (racemic)
Result: < 1000 nM

Query: Now the same for O=c1c2cnn(C3CC3)c2nc2n1CCN(c1ccc(Cl)cc1)C2
Result: < 1000 nM

Query: Now the same for CCC1Cn2c(nc3c(cnn3C(C)C)c2=O)CN1Cc1ccc(OC)cc1 (racemic)
Result: 1000 to 10000 nM

Query: Now the same for CCOc1cccc(N2CCn3c(nc4c(cnn4C(C)C)c3=O)C2)c1
Result: < 1000 nM

Query: Now the same for COCCn1ncc2c(=O)n3c(nc21)CN(Cc1cccc(OC)c1)CC3
Result: > 10000 nM

Query: Now the same for Cc1ncc(CN2CCn3c(nc4c(cnn4C4CCCC4)c3=O)C2)cn1
Result: 1000 to 10000 nM

Query: Now the same for Cn1ncc2c(=O)n3c(nc21)CN(Cc1ccccc1)CC3
Result: > 10000 nM

Continuing:
Query: What value of IC50 has been recorded for this entry: CC1Cn2c(nc3c(cnn3C(C)C)c2=O)CN1Cc1ccccc1 (racemic)
Result: < 1000 nM

----------
test system: PDE1; assay: In vitro HTRF PDE1 inhibition assay; type: biochemical; details: HTRF cGMP assay, 100 nM cyclic GMP, PDE (1A3, 1B or 1C) with calmodulin, 45 minutes at 37° C.; isoform of the tabulated values not stated
pIC50: −log10 of the molar value.
Readout: pIC50

The cases that follow already have their pIC50 on record.
Query: What value of pIC50 has been recorded for this entry: CN1CCn2c(nc3[nH]ncc3c2=O)C1Cc1ccccc1 (racemic) [Compound I-23]
Result: < 5.00

Query: Now the same for CC1CNCc2nc3c(cnn3C3CCCC3)c(=O)n21 (racemic) [Compound I-99]
Result: < 5.00

Query: Now the same for CC(C)n1ncc2c(=O)n3c(nc21)CNC(c1ccccc1)C3 (racemic) [Compound I-106]
Result: < 5.00

Query: Now the same for Cc1ccc(CN2CCn3c(nc4c(cnn4C4CCCC4)c3=O)C2)cn1 [Compound I-187]
Result: > 6.00

Query: Now the same for COc1cccc(CN2CCn3c(nc4c(cnn4CC(C)C)c3=O)C2)c1 [Compound I-80]
Result: 5.00 to 6.00

Query: Now the same for CCOc1cccc(N2CCn3c(nn4c(C(C)C)ncc4c3=O)C2)c1 [Compound I-173]
Result: > 6.00

Query: Now the same for CC(C)c1n[nH]c2c(=O)n3c(nc12)CN(Cc1ccccc1)CC3 [Compound I-43]
Result: < 5.00

Query: Now the same for CC(C)c1n[nH]c2c(=O)n3c(nc12)CNCC3 [Compound I-10]
Result: < 5.00

Query: Now the same for Cn1ncc2c(=O)n3c(nc21)C(Cc1ccccc1)NCC3 (racemic) [Compound I-7]
Result: < 5.00

Query: Now the same for CC(C)n1ncc2c(=O)n3c(nc21)CN(c1cccnc1)CC3 [Compound I-143]
Result: 5.00 to 6.00

Continuing:
Query: What value of pIC50 has been recorded for this entry: O=c1c2cnc(C3CC3)n2nc2n1CCN(c1ccc(Cl)cc1)C2 [Compound I-251]
Result: > 6.00

Query: Now the same for O=c1c2cnn(C3CCOC3)c2nc2n1CCN(Cc1ccccc1)C2 (racemic) [Compound I-218]
Result: 5.00 to 6.00

Query: Now the same for CC(C)c1ncc2c(=O)n3c(nn12)CN(c1ccc(C(F)(F)F)cc1)CC3 [Compound I-240]
Result: > 6.00
